Value source: patent US20210017281A1

target: T1, human VISTA (human, UniProt Q9H7M9 33-194, limits assumed); experiment: method not stated (Table 1, column Kd, M)
T1 construct: The ELISA text says only recombinant VISTA; also called recombinant VISTA
Task for the reader: assign each of the following binders its reported Kd.
Numbers only, in nM.

// batch mode: one Kd value per listed entry
1. INX907 | VSTB66 (antibody, V domains shown, INX name = the VSTB variable regions with human IgG2 constant regions) VH: QVQLVQSGAEVKKPGASVKVSCKASGYPFTGYFMHWVRQAPGQGLEWMGRINPYNGGTVYNQNFNDRVTMTRDTSTSTVYMELSSLRSEDTAVYYCARWTFDGLFMDYWGQGTTVTVSS VL: DVVMTQSPLSLPVTLGQPASISCRASENVDKYGISFMNWFQQRPGQSPRRLIYATSNQGSGVPDRFSGSGSGTDFTLKISRVEAEDVGVYYCQQSKEDPYTFGQGTKLEIK
2. INX909 | VSTB67 (antibody, V domains shown) VH: QVQLVQSGAEVKKPGASVKVSCKASDYIFSSYWIQWVRQAPGQGLEWMGEIFPGSGGTNYNEKFKGRVTMTRDTSTSTVYMELSSLRSEDTAVYYCARAIYYDYDMYYFDSWGQGTTVTVSS VL: DIQMTQSPSSLSASVGDRVTITCRASQDISSYLNWYQQKPGKVPKLLIYYTSRLHSGVPSRFSGSGSGTDFTLTISSLQPEDVATYYCQHVNTLPWTFGQGTKLEIKR

Return:
1. 0.0806
2. 0.0629
